Biological target: human histamine H4 receptor (Homo sapiens, UniProt Q9H3N8)
Construct: expressed in transfected cells; host or cells: SK-N-MC cells or COS7 cells, transiently transfected; cell membranes used
Sequence (Q9H3N8 whole entry): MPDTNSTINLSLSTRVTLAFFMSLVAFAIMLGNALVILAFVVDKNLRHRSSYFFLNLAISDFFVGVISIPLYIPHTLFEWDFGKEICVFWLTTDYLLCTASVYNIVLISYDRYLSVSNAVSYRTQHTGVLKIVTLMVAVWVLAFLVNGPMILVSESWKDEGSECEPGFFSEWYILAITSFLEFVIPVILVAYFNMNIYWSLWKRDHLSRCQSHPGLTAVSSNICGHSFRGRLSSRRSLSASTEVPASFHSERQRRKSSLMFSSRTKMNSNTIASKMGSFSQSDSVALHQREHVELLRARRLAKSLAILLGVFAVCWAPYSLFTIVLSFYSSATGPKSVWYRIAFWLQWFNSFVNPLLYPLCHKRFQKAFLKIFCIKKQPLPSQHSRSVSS
Assay: Binding Assay on Recombinant Human Histamine H4 Receptor
Conditions: competition binding with 3H-histamine (5 nM), membranes of SK-N-MC or COS7 cells expressing human H4 receptor; Cheng-Prusoff, KD 5 nM; average of results obtained; read-out: Ki
Description: Binding Assay on Recombinant Human Histamine H4 Receptor SK-N-MC cells or COS7 cells were transiently transfected with pH4R and grown in 150 cm^2 tissue culture dishes. Cells were washed with saline solution, scraped with a cell scraper and collected by centrifugation (1000 rpm, 5 min). […] Filters were then dried, mixed with scintillant and counted for radioactivity. […]
Structures can show the parent of a compound that is named as a salt.
# label = true (1) if Ki < 6 nM else false (0)

1) Nc1nc(N2CCC[C@@H](N)C2)c2oc3ccc(Cl)cc3c2n1 [Example 28, trifluoroacetic acid salt]
false (0)
2) CC1CN(c2nc(N)nc3c2oc2ccc(Cl)cc23)CC(C)N1 (mixture of isomers) [Example 128, trifluoroacetic acid salt]
false (0)
3) CN[C@@H]1CCN(c2nc(N)nc3c2sc2ccc(F)cc23)C1 [Example 76, trifluoroacetic acid salt]
false (0)
4) CN(C)C1CCN(c2nc(N)nc3c2oc2ccc(Cl)cc23)C1 (centres unmarked) [Example 15, trifluoroacetic acid salt]
false (0)
5) C[C@H]1CN(c2nc(N)nc3c2oc2ccc(Cl)cc23)CCN1 [Example 133, trifluoroacetic acid salt]
true (1)
6) CN[C@@H]1CCN(c2nc(N)nc3c2oc2ccc(F)cc23)C1 [Example 39, trifluoroacetic acid salt]
true (1)

Dear colleague, could you confirm whether Ki of Nc1nc(N2CCC(N)C2)c2oc3ccc(Cl)cc3c2n1 (centres unmarked) [Example 16, trifluoroacetic acid salt] falls below 6 nM? Thanks. true (1)

Dear colleague, could you confirm whether Ki of CN1CCN(c2nc(N)nc3c2oc2ccc(F)c(F)c23)CC1 [Example 145, trifluoroacetic acid salt] falls below 6 nM? Thanks. false (0)

Dear colleague, could you confirm whether Ki of Nc1nc(N2C[C@@H]3C[C@H]2CN3)c2oc3cccc(C(F)(F)F)c3c2n1 [Example 94, citrate salt] falls below 6 nM? Thanks. false (0)

Dear colleague, could you confirm whether Ki of Nc1nc(N2C[C@@H]3C[C@H]2CN3)c2oc3ccccc3c2n1 [Example 33, trifluoroacetic acid salt] falls below 6 nM? Thanks. false (0)

Dear colleague, could you confirm whether Ki of Nc1nc(N2CCN3CCCCC3C2)c2oc3c(Cl)cc(Cl)cc3c2n1 (centres unmarked) [Example 37, trifluoroacetic acid salt] falls below 6 nM? Thanks. false (0)

Dear colleague, could you confirm whether Ki of NCC1CN(c2nc(N)nc3c2oc2ccc(Cl)cc23)C1 [Example 103, trifluoroacetic acid salt] falls below 6 nM? Thanks. true (1)

Dear colleague, could you confirm whether Ki of NC[C@@H]1CCN(c2nc(N)nc3c2oc2ccc(Cl)cc23)C1 [Example 26, trifluoroacetic acid salt] falls below 6 nM? Thanks. false (0)

Dear colleague, could you confirm whether Ki of CN[C@@H]1CCN(c2nc(N)nc3c2oc2cccc(Cl)c23)C1 [Example 152, trifluoroacetic acid salt] falls below 6 nM? Thanks. false (0)

###

molecular target: human histamine H4 receptor (Homo sapiens); construct: expressed in transfected cells; host or cells: SK-N-MC cells or COS7 cells, transiently transfected; cell membranes used; assay: Binding Assay on Recombinant Human Histamine H4 Receptor; details: competition binding with 3H-histamine (5 nM), membranes of SK-N-MC or COS7 cells expressing human H4 receptor; Cheng-Prusoff, KD 5 nM; average of results obtained; read-out: Ki
Counter-ions that a name gives are not always drawn.
experimental_readout: pKi
For clarity, pKi is expressed as the negative log10 of concentration in mol/L.

1) Nc1nc(N2CC3CCCNC3C2)c2oc3c(Cl)cc(Cl)cc3c2n1 (stereo not drawn) [Example 2, trifluoroacetic acid salt]
8.15

Quick check: pKi on human histamine H4 receptor (Homo sapiens), item CN[C@@H]1CCN(c2nc(N)nc3c2sc2cc(C(F)(F)F)ccc23)C1 [Example 52, trifluoroacetic acid salt] ? 6.92

Quick check: pKi on human histamine H4 receptor (Homo sapiens), item Nc1nc(N2C[C@@H]3C[C@H]2CN3)c2oc3ccc(C(F)(F)F)cc3c2n1 [Example 143, citrate salt] ? 6.57

Quick check: pKi on human histamine H4 receptor (Homo sapiens), item COc1ccc2oc3c(N4C[C@@H]5C[C@H]4CN5)nc(N)nc3c2c1 [Example 113, trifluoroacetic acid salt] ? 6.38

Quick check: pKi on human histamine H4 receptor (Homo sapiens), item CNc1nc(N2CCN(C)CC2)c2oc3ccc(Cl)cc3c2n1 ? 7.01

Quick check: pKi on human histamine H4 receptor (Homo sapiens), item COc1cccc2oc3c(N4CCN(C)CC4)nc(N)nc3c12 [Example 88, trifluoroacetic acid salt] ? 7.52

Quick check: pKi on human histamine H4 receptor (Homo sapiens), item Nc1nc(N2C[C@@H]3C[C@H]2CN3)c2sc3cc(Br)ccc3c2n1 [Example 77, trifluoroacetic acid salt] ? 5.49

Quick check: pKi on human histamine H4 receptor (Homo sapiens), item CN1CCN(c2nc(N)nc3c2sc2cc(Br)ccc23)CC1 [Example 55, trifluoroacetic acid salt] ? 7.37

Quick check: pKi on human histamine H4 receptor (Homo sapiens), item Nc1nc(NCC2CNC2)c2oc3ccc(Cl)cc3c2n1 [Example 110, trifluoroacetic acid salt] ? 5.74

Quick check: pKi on human histamine H4 receptor (Homo sapiens), item COc1ccc2oc3c(N4C[C@H]5CCCN[C@H]5C4)nc(N)nc3c2c1 (relative stereo) [Example 105, trifluoroacetic acid salt] ? 7.85

Quick check: pKi on human histamine H4 receptor (Homo sapiens), item NCCNc1nc(N)nc2c1oc1ccc(Cl)cc12 [Example 112, trifluoroacetic acid salt] ? 7.39

Quick check: pKi on human histamine H4 receptor (Homo sapiens), item Nc1nc(N2CC[C@@H](N)C2)c2oc3ccccc3c2n1 ? 8.59

Quick check: pKi on human histamine H4 receptor (Homo sapiens), item Nc1nc(N2CCNCC2)c2oc3ccc(F)c(F)c3c2n1 [Example 146, trifluoroacetic acid salt] ? 5.89

Reference for the values: patent US8030321B2
